Source of measurements: ChEMBL document CHEMBL1142636

- System: HOP-18
- Protocol details: Growth inhibition of human HOP18 cells
- Format: functional
Exercise: for every item that follows, state its recorded GI50.
Answers are plain numbers, in µM.

State recorded GI50 for all listed molecules.
1. COc1cc(C(=O)O)cc2c1[nH]c1ccccc12 [MUKOEIC ACID]
2. CC1=CC(=O)c2[nH]c3ccccc3c2C1=O [MURRAYAQUINONE A]
3. COc1cc(C)cc2c1[nH]c1ccccc12 [MURRAYAFOLINE A]
4. CC(C)=CCCC1(C)C=Cc2c(c(C)cc3c2[nH]c2cc(O)ccc23)O1 (centres undefined)

Outgoing:
1: 25.1; 2: 3.39; 3: 0.288; 4: 7.41

---

- Test system: TK-10
- Protocol details: Growth inhibition of human TK10 cells
- Type: functional
Each record is given Yes if its reported GI50 is strictly below 10 µM. Records at or above 10 µM are given No.

Compound | Label
COc1cc(Cn2c3ccccc3c3cc(C)cc(OC)c32)cc2c1[nH]c1ccccc12 | No

Now look at this entry.
Incoming: Consider CC1=CC(=O)c2[nH]c3ccccc3c2C1=O . Does its GI50 lie strictly below 10 µM?
Outgoing: Yes

---

- Tested on: HCT-8
- Protocol details: Growth inhibition of human HCT8 cells
- Format: functional
- Recorded conditions: read-out: ED50 (the source's name)
Each entry falls in a class defined on EC50; the bands are small value = under 5 µg/mL, mid value = from 5 µg/mL up to 6 µg/mL, large value = 6 µg/mL and over

For orientation, consider the following solved cases.
Smiles text | Label
COc1cccc2c3c([nH]c12)C(=O)C(C)=CC3=O | small value
COc1cccc2c3c([nH]c12)C(=O)C=C(C)C3=O | mid value
CC1=CC(=O)c2c([nH]c3ccc(Cl)cc23)C1=O | mid value
COc1ccc2[nH]c3c(c2c1)C(=O)C(C)=CC3=O | large value
CC1=CC(=O)c2c([nH]c3ccc(F)cc23)C1=O | small value

Incoming: Band of CC1=CC(=O)c2c([nH]c3ccc(C)cc23)C1=O ?
Outgoing: mid value

Incoming: Param item: CC1=CC(=O)c2[nH]c3ccc(C)cc3c2C1=O
Outgoing: large value

Incoming: Param item: CC1=CC(=O)c2[nH]c3ccc(Cl)cc3c2C1=O
Outgoing: large value

Incoming: Param item: COc1ccc2c3c([nH]c2c1)C(=O)C=C(C)C3=O
Outgoing: large value

Incoming: Param item: CC1=CC(=O)c2[nH]c3ccccc3c2C1=O
Outgoing: mid value

---

- Test system: SF-268
- Protocol details: Growth inhibition of human SF268 cells
- Type: functional
Assay metric: GI50 (µM)
One number for each entry, in µM.

Here's what some known entries look like.
Smiles text | Result units | Experimental result
COc1cc(C(=O)O)cc2c1[nH]c1ccccc12 | µM | 25.1
Cc1cc2c(cc1O)[nH]c1cc3c(cc12)C=CC(C)(C)O3 | µM | 6.76

State recorded GI50 for all listed compounds.
1. COc1cc(C)cc2c1[nH]c1ccccc12
2. COc1cc(Cc2c(C)cc(OC)c3[nH]c4ccccc4c23)cc2c1[nH]c1ccccc12

Outgoing:
1: 14.5; 2: 6.92

---

- System: LOX IMVI
- Protocol details: Growth inhibition of human LOX IMVI cells
- Format: functional
Exercise: for every item that follows, state its recorded GI50.
Numbers only, in µM.

Here's what some known entries look like.
Compound | Result units | Experimental result
COc1cc(C)cc2c1[nH]c1ccccc12 | µM | 12.6
C=C(C)C(O)CCC1(C)C=Cc2c(c(C)cc3c2[nH]c2ccccc23)O1 (centres undefined) | µM | 3.09
COc1cc(Cc2c(C)cc(OC)c3[nH]c4ccccc4c23)cc2c1[nH]c1ccccc12 | µM | 3.89

Incoming: Item Cc1cc2c(cc1O)[nH]c1cc3c(cc12)C=CC(C)(C)O3 has what recorded GI50?
Outgoing: 3.98

---

Exercise: for every item that follows, state its recorded GI50.
- Test system: TK-10
- Protocol details: Growth inhibition of human TK10 cells
- Assay type: functional
One number for each entry, in µM.

Here's what some known entries look like.
Compound | Experimental result
COc1cc(C(=O)O)cc2c1[nH]c1ccccc12 [MUKOEIC ACID] | 25.1
COc1ccc2c([nH]c3cc(O)c(C)cc32)c1CC=C(C)C | 5.01

State recorded GI50 for all listed compounds.
1. CC(C)=CCCC1(C)C=Cc2c(ccc3c2[nH]c2cc(O)c(C)cc23)O1 (configuration not stated)
2. Cc1cc2c(cc1O)[nH]c1cc3c(cc12)C=CC(C)(C)O3
3. COc1cc(C)cc2c1[nH]c1ccccc12 [MURRAYAFOLINE A]

Outgoing:
16.6
25.1
25.1

State recorded GI50 for all listed compounds.
1. C=C(C)C(O)CCC1(C)C=Cc2c(c(C)cc3c2[nH]c2ccccc23)O1 (configuration not stated)
2. COc1cc(Cc2c(C)cc(OC)c3[nH]c4ccccc4c23)cc2c1[nH]c1ccccc12

Outgoing:
1: 14.1; 2: 12

---

- Tested on: HCT-8
- Protocol details: Growth inhibition of human HCT8 cells
- Format: functional
- Recorded conditions: read-out: ED50 (the source's name)
Assay metric: EC50 (µg/mL)
One number for each entry, in µg/mL.

State recorded EC50 for all listed compounds.
1. COc1ccc2[nH]c3c(c2c1)C(=O)C=C(C)C3=O
2. CC1=CC(=O)c2[nH]c3ccc(F)cc3c2C1=O

Outgoing:
6.03
5.88

Incoming: Item COc1ccc2c3c([nH]c2c1)C(=O)C(C)=CC3=O has what recorded EC50?
Outgoing: 5.09
